biological target: Rabbit CYP2E1 (Oryctolagus cuniculus); test: Inhibition of p-nitrophenol hydroxylation by purified rabbit CYP2E1; type: biochemical; settings: substituted pyrazoles; purified rabbit CYP2E1, p-nitrophenol as substrate
Sequence (P08682 whole entry): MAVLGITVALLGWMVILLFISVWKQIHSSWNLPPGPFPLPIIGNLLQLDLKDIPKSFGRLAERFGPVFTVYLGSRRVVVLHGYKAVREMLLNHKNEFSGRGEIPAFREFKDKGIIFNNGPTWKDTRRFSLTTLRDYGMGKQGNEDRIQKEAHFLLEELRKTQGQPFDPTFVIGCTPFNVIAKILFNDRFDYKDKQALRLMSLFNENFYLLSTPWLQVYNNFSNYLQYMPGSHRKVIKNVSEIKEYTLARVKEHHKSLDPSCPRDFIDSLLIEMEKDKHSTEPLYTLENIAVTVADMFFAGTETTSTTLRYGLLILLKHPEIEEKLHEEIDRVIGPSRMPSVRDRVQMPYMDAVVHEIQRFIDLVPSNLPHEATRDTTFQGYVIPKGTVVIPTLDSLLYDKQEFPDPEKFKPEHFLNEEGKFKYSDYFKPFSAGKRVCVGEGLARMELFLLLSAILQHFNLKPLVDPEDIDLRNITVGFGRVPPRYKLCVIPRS
endpoint-name: pKi
To interpret pKi, take it as minus log10 of a concentration measured in moles per litre.

Name the recorded pKi for CCCOc1cn[nH]c1 . 6.10

---

Recorded Ki at 10 min values for a group of molecules are listed next.
target: CYP2E1 (Rattus norvegicus, UniProt P05182, species not given); experiment: Inhibition of chlorzoxazone 6-hydroxylation in CYP2E1 liver microsomes; conditions: human, microsomes, pH 7.4, pKi, Log (1/Ki), chlorzoxazone metabolism
Sequence (P05182 2-493): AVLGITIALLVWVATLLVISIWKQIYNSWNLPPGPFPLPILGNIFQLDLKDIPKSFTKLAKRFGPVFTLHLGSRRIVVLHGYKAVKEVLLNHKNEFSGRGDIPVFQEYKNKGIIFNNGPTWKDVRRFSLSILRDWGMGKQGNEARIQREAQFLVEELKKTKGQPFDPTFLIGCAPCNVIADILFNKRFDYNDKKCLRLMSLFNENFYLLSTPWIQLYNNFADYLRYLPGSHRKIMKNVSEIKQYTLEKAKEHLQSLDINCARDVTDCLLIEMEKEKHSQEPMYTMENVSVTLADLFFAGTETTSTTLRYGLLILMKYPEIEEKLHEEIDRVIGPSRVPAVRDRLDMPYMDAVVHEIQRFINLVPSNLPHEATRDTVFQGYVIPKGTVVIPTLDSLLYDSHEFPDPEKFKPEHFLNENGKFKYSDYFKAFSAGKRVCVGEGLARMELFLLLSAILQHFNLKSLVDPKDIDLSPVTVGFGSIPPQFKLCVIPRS
Give the quantity in µM, number only.

Examples from the recorded data:
molecule | unit-text | Ki at 10 min
COC(=O)c1cccnc1 [methyl nicotinate] | µM | 20
Cc1cnc2ccccc2c1 | µM | 100
O=C(n1ccnc1)C(F)(F)F | µM | 251
OCc1c[nH]cn1 [4-hydroxymethylimidazole] | µM | 501

Name the recorded Ki at 10 min for Cn1ccnc1 . 6.31

Oc1cccc2cccnc12 [8-hydroxyquinoline] ? 79.4
